Assay overview: recombinant UMI read abundance after kanamycin selection (control-corrected) (log10(CPM+1)); higher = more efficient recombination; extreme values may be limits of the assay; sequences stand for … in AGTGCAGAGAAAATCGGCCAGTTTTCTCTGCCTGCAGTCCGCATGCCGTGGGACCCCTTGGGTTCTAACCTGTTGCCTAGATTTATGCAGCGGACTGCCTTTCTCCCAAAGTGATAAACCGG…AGGTTGGTTTCACT; site = the 11-nt donor;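 note: IS621 bridge recombinase in Escherichia coli cells against a fixed T5 target plasmid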
Listed next: entries and their corresponding recombinant UMI read abundance (log10).
Readout type: recombinant UMI read abundance (log10)

>>> observed_result("AGCCTATCATGGACCGGTTTTCCCGGTAATCCGTATTTGAC (site AGCCTGTCTGT)")
0
>>> observed_result("AACTGCGCATGGACCGGTTTTCCCGGTAATCCGTATTTGAT (site AACTGCGCTAT)")
1.34
>>> observed_result("TTTGCTTCATGGACCGGTTTTCCCGGTAATCCGTATTTGGT (site TTTGCTTCTAC)")
0.00326
>>> observed_result("ACCTATACATGGACCGGTTTTCCCGGTAATCCGTATTTGAC (site AACTATACTGT)")
0
>>> observed_result("GATTATTCATGGACCGGTTTTCCCGGTAATCCGTATTTGCT (site GATTATCCTAG)")
0
>>> observed_result("TATCTTACATGGACCGGTTTTCCCGGTAATCCGTATTTGTA (site TATCTTACTTA)")
0.0229
>>> observed_result("CGGGGACCATGGACCGGTTTTCCCGGTAATCCGTATTTGAT (site CGGGCACCTAT)")
0.00825
>>> observed_result("CGGAGGACATGGACCGGTTTTCCCGGTAATCCGTATTTGCA (site AGGAAGACTTG)")
0
>>> observed_result("ATGTAGGCATGGACCGGTTTTCCCGGTAATCCGTATTTGGC (site ACGTAGGCTGC)")
1.74
>>> observed_result("TTTTCGGCATGGACCGGTTTTCCCGGTAATCCGTATTTGCT (site TTTGCGGCTAG)")
0.00223
>>> observed_result("ATGTAGCCATGGACCGGTTTTCCCGGTAATCCGTATTTGGC (site ATGTAGGCTGC)")
0
>>> observed_result("TAGAATACATGGACCGGTTTTCCCGGTAATCCGTATTTGTA (site TAGAATACTTT)")
0.208
>>> observed_result("TAGGAATCATGGACCGGTTTTCCCGGTAATCCGTATTTGCG (site TAGGAACCTCG)")
0
>>> observed_result("TAAAGACCATGGACCGGTTTTCCCGGTAATCCGTATTTGTA (site TAAAGCCCTTA)")
0.624
>>> observed_result("CTCTACACATGGACCGGTTTTCCCGGTAATCCGTATTTGCG (site CTCTACACTAG)")
0.613
>>> observed_result("CAACTCTCATGGACCGGTTTTCCCGGTAATCCGTATTTGGT (site CAACTCTCTAC)")
2.56
>>> observed_result("GCAGTCGCATGGACCGGTTTTCCCGGTAATCCGTATTTGCG (site GGAGTCGCTCG)")
0.00641
>>> observed_result("TTAATTCCATGGACCGGTTTTCCCGGTAATCCGTATTTGTT (site TTAATTCCTAA)")
0.0021
